What follows is a record of pKi for Cannabinoid receptor 2 (Homo sapiens, UniProt P34972).
pKi: −log10 of the molar value.

[
  {
    "smiles_structure": "CC(C)CS(=O)(=O)N1CCN(c2ncnc3c2nc(-c2ccccc2Cl)n3-c2ccc(Cl)cc2)CC1",
    "limit_operator": "=",
    "pKi": 5.55
  },
  {
    "smiles_structure": "O=C(C1CCSCC1)N1CCN(c2ncnc3c2nc(-c2ccccc2Cl)n3-c2ccc(Cl)cc2)CC1",
    "limit_operator": "=",
    "pKi": 6.28
  },
  {
    "smiles_structure": "O=C(OC1CCC1)N1CCN(c2ncnc3c2nc(-c2ccccc2Cl)n3-c2ccc(Cl)cc2)CC1",
    "limit_operator": "=",
    "pKi": 5.47
  },
  {
    "smiles_structure": "CC(C)(C)CC(=O)N1CCN(c2ncnc3c2nc(-c2ccccc2Cl)n3-c2ccc(Cl)cc2)CC1",
    "limit_operator": "=",
    "pKi": 5.30
  },
  {
    "smiles_structure": "CC(C)(C)OC(=O)N1CCN(c2ncnc3c2nc(-c2ccccc2Cl)n3-c2ccc(Cl)cc2)CC1",
    "limit_operator": "=",
    "pKi": 5.47
  },
  {
    "smiles_structure": "O=C(N1CCN(c2ncnc3c2nc(-c2ccccc2Cl)n3-c2ccc(Cl)cc2)CC1)C(F)(F)F",
    "limit_operator": "=",
    "pKi": 6.89
  },
  {
    "smiles_structure": "O=C(Nc1ccc(OC(F)F)nc1)N1CCN(c2ncnc3c2nc(-c2ccccc2Cl)n3-c2ccc(Cl)cc2)CC1",
    "limit_operator": "<",
    "pKi": 5.00
  },
  {
    "smiles_structure": "O=C(CC1CCCC1)N1CCN(c2ncnc3c2nc(-c2ccccc2Cl)n3-c2ccc(Cl)cc2)CC1",
    "limit_operator": "<",
    "pKi": 5.00
  },
  {
    "smiles_structure": "O=C(CN1CCCCC1)N1CCN(c2ncnc3c2nc(-c2ccccc2Cl)n3-c2ccc(Cl)cc2)CC1",
    "limit_operator": "=",
    "pKi": 5.30
  }
]

====

# target: Cannabinoid receptor 2 (Homo sapiens, UniProt P34972)
# Sequence (P34972 whole entry): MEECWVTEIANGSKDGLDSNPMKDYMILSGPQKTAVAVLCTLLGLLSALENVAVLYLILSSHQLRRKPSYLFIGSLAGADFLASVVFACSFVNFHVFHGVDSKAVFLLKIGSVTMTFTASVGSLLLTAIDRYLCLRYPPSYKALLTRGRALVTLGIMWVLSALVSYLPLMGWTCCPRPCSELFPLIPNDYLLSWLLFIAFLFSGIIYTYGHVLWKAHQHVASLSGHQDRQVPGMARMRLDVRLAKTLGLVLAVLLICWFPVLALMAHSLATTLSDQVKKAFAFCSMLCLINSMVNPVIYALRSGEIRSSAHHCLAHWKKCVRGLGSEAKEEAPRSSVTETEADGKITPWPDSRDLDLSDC
assay_readout: Ki (nM)

[
  {
    "molecule": "CS(=O)(=O)N1CCN(c2ncnc3c2nc(-c2ccccc2Cl)n3-c2ccc(Cl)cc2)CC1",
    "observed_result": 1700
  },
  {
    "molecule": "O=S(=O)(CC1CCCCC1)N1CCN(c2ncnc3c2nc(-c2ccccc2Cl)n3-c2ccc(Cl)cc2)CC1",
    "observed_result": 91
  },
  {
    "molecule": "O=C(OCC1CCC1)N1CCN(c2ncnc3c2nc(-c2ccccc2Cl)n3-c2ccc(Cl)cc2)CC1",
    "observed_result": 4600
  },
  {
    "molecule": "CC(C(=O)N1CCN(c2ncnc3c2nc(-c2ccccc2Cl)n3-c2ccc(Cl)cc2)CC1)c1ccccc1 (centres undefined)",
    "observed_result": 560
  }
]

====

# protocol_notes: Half life in C57BL6 mouse at […], po administered in cassette format
# Type: ADME, organism-based
# condition_summary: in vivo

[
  {
    "smiles_structure": "O=C(Nc1ccc(OC(F)F)nc1)N1CCN(c2ncnc3c2nc(-c2ccccc2Cl)n3-c2ccc(Cl)cc2)CC1",
    "half-life, h": 6.1
  }
]
